Origin of the recorded values: paper PMC4266452

Test: Plasma concentration (Cmax) during the TQT study, total and calculated free
Format: in vivo, human
Details: Cmax high; calculated from ng/mL and molecular weight
quantityMeasured: Cmax TOTAL (nM)
One number for each entry, in nM.

Answered cases to consult:
| compound | unitText | Cmax TOTAL |
| --- | --- | --- |
| Cc1nc(Nc2ncc(C(=O)Nc3c(C)cccc3Cl)s2)cc(N2CCN(CCO)CC2)n1.O [Dasatinib] | nM | 519.742 |
| C[C@H](Cc1cc2c(c(C(N)=O)c1)N(CCCO)CC2)NCCOc1ccccc1OCC(F)(F)F [Silodosin] | nM | 290.598 |
| CCN(CC)CCNC(=O)c1c(C)[nH]c(/C=C2\C(=O)Nc3ccc(F)cc32)c1C [Sunitinib] | nM | 150.207 |
| Cc1nc2n(c(=O)c1CCN1CCC(c3noc4cc(F)ccc34)CC1)CCCC2O (centres unmarked) [Paliperidone] | nM | 264.953 |

Now consider the entry below.
Quick one: Cmax TOTAL for COc1cc2nc(N(C)CCCNC(=O)C3CCCO3)nc(N)c2cc1OC (centres unmarked) [Alfuzosin] ? 77.39

====

Test: Plasma concentration (Cmax) during the TQT study, total and calculated free
Type: in vivo, human
Details: Cmax low; calculated from ng/mL and molecular weight
Provide the recorded Cmax TOTAL for the entries that follow.
Give bare numbers, in nM.

Answered cases to consult:
| compound | unitText | reportedMeasurement |
| --- | --- | --- |
| O=C1c2cccc3c2[C@H](CCC3)CN1[C@@H]1CN2CCC1CC2 [Palonosetron] | nM | 7.658 |
| C[C@H](Cc1cc2c(c(C(N)=O)c1)N(CCCO)CC2)NCCOc1ccccc1OCC(F)(F)F [Silodosin] | nM | 85.767 |
| Cc1c(O)cccc1C(=O)N[C@@H](CSc1ccccc1)[C@H](O)CN1C[C@H]2CCCC[C@H]2C[C@H]1C(=O)NC(C)(C)C [Nelfinavir] | nM | 14618.1 |
| CN(C)CC(c1ccc(O)cc1)C1(O)CCCCC1 (stereo not drawn) [Desvenlafaxine] | nM | 1784.49 |
| Cc1nc(Nc2ncc(C(=O)Nc3c(C)cccc3Cl)s2)cc(N2CCN(CCO)CC2)n1.O [Dasatinib] | nM | 197.621 |
| CS(=O)(=O)CCNCc1ccc(-c2ccc3ncnc(Nc4ccc(OCc5cccc(F)c5)c(Cl)c4)c3c2)o1 [Lapatinib] | nM | 2390.459 |
| Cc1ccc(O)c([C@H](CCN(C(C)C)C(C)C)c2ccccc2)c1 [Tolterodine] | nM | 17.389 |
| Cc1cn([C@@H]2C[C@@H](O)[C@H](CO)O2)c(=O)[nH]c1=O [Telbivudine] | nM | 9082.28 |

Parameters: items (list). Returns: Cmax TOTAL for each item.
1. COc1cc2nc(N(C)CCCNC(=O)C3CCCO3)nc(N)c2cc1OC (stereo not drawn) [Alfuzosin]
2. Cc1nc2n(c(=O)c1CCN1CCC(c3noc4cc(F)ccc34)CC1)CCCC2O (stereo not drawn) [Paliperidone]
3. Cc1cn(-c2cc(NC(=O)c3ccc(C)c(Nc4nccc(-c5cccnc5)n4)c3)cc(C(F)(F)F)c2)cn1 [Nilotinib]
4. CCCc1nc(C)c2c(=O)nc(-c3cc(S(=O)(=O)N4CCN(CC)CC4)ccc3OCC)[nH]n12 [Vardenafil]

1. 15.29
2. 82.0652
3. 4193.028
4. 15.248

====

Assay: Plasma concentration (Cmax) during the TQT study, total and calculated free
Format: in vivo, human
Conditions: Cmax high; calculated with PPB
Provide the recorded Cmax FREE for the entries that follow.
Don't forget the unit after the number, please.

Answered cases to consult:
| compound | reportedMeasurement |
| --- | --- |
| CCN(CC)CCNC(=O)c1c(C)[nH]c(/C=C2\C(=O)Nc3ccc(F)cc32)c1C [Sunitinib] | 4.000 ng/mL |
| CNCC[C@H](Oc1cccc2ccccc12)c1cccs1 [Duloxetine] | 30 ng/mL |
| O=C1c2cccc3c2[C@H](CCC3)CN1[C@@H]1CN2CCC1CC2 [Palonosetron] | 2.128 ng/mL |
| Cc1c(O)cccc1C(=O)N[C@@H](CSc1ccccc1)[C@H](O)CN1C[C@H]2CCCC[C@H]2C[C@H]1C(=O)NC(C)(C)C [Nelfinavir] | 45.78 ng/mL |
| Nc1nnc(-c2cccc(Cl)c2Cl)c(N)n1 [Lamotrigine] | 4324.5 ng/mL |

Parameters: items (list). Returns: Cmax FREE for each item.
1. CC1=NN(c2ccc(C)c(C)c2)C(=O)/C1=N\Nc1cccc(-c2cccc(C(=O)O)c2)c1O [Eltrombopag]
2. Cc1nc(Nc2ncc(C(=O)Nc3c(C)cccc3Cl)s2)cc(N2CCN(CCO)CC2)n1.O [Dasatinib]
3. Cc1cc(C#N)cc(C)c1Oc1nc(Nc2ccc(C#N)cc2)nc(N)c1Br [Etravirine]
4. OC(CNCC(O)C1CCc2cc(F)ccc2O1)C1CCc2cc(F)ccc2O1 (centres unmarked) [Nebivolol]
5. COC[C@@H](NC(C)=O)C(=O)NCc1ccccc1 [Lacosamide]
6. CS(=O)(=O)CCNCc1ccc(-c2ccc3ncnc(Nc4ccc(OCc5cccc(F)c5)c(Cl)c4)c3c2)o1 [Lapatinib]
7. COc1cc2nc(N(C)CCCNC(=O)C3CCCO3)nc(N)c2cc1OC (centres unmarked) [Alfuzosin]
8. Cc1cn([C@@H]2C[C@@H](O)[C@H](CO)O2)c(=O)[nH]c1=O [Telbivudine]

1: 76 ng/mL; 2: 10.52 ng/mL; 3: 1.322 ng/mL; 4: 0.415 ng/mL; 5: 19928 ng/mL; 6: 32.030 ng/mL; 7: 4.05 ng/mL; 8: 6382.2 ng/mL

Parameters: items (list). Returns: Cmax FREE for each item.
1. N[C@@H](CC(=O)N1CCn2c(nnc2C(F)(F)F)C1)Cc1cc(F)c(F)cc1F [Sitagliptin]
2. CCCc1nc(C)c2c(=O)nc(-c3cc(S(=O)(=O)N4CCN(CC)CC4)ccc3OCC)[nH]n12 [Vardenafil]
3. C[C@H](Cc1cc2c(c(C(N)=O)c1)N(CCCO)CC2)NCCOc1ccccc1OCC(F)(F)F [Silodosin]
4. C[C@@H](O)[C@H]1C(=O)N2C(C(=O)O)=C(S[C@@H]3CN[C@H](CNS(N)(=O)=O)C3)[C@H](C)[C@H]12 [Doripenem]

1: 3827.6 ng/mL; 2: 5.300 ng/mL; 3: 7.2 ng/mL; 4: 41355 ng/mL

====

Experiment: Plasma concentration (Cmax) during the TQT study, total and calculated free
Format: in vivo, human
Details: Cmax high
Provide the recorded Free plasma concentration for the entries that follow.
Answers are plain numbers, in µM.

| compound | quantityMeasured | unitText | reportedMeasurement |
| --- | --- | --- | --- |
| Nc1nnc(-c2cccc(Cl)c2Cl)c(N)n1 [Lamotrigine] | Free plasma concentration | µM | 37.5259 |

Parameters: items (list). Returns: Free plasma concentration for each item.
1. O=C1c2cccc3c2[C@H](CCC3)CN1[C@@H]1CN2CCC1CC2 [Palonosetron]
2. C[C@H](Cc1cc2c(c(C(N)=O)c1)N(CCCO)CC2)NCCOc1ccccc1OCC(F)(F)F [Silodosin]
3. Cc1c(O)cccc1C(=O)N[C@@H](CSc1ccccc1)[C@H](O)CN1C[C@H]2CCCC[C@H]2C[C@H]1C(=O)NC(C)(C)C [Nelfinavir]
4. COc1cc2nc(N(C)CCCNC(=O)C3CCCO3)nc(N)c2cc1OC (stereo not drawn) [Alfuzosin]
5. CS(=O)(=O)CCNCc1ccc(-c2ccc3ncnc(Nc4ccc(OCc5cccc(F)c5)c(Cl)c4)c3c2)o1 [Lapatinib]

[0.006393, 0.01453, 0.08063, 0.007739, 0.05512]

====

Molecular target: NaV1.5 (Homo sapiens, UniProt Q14524)
Sequence (Q14524 whole entry): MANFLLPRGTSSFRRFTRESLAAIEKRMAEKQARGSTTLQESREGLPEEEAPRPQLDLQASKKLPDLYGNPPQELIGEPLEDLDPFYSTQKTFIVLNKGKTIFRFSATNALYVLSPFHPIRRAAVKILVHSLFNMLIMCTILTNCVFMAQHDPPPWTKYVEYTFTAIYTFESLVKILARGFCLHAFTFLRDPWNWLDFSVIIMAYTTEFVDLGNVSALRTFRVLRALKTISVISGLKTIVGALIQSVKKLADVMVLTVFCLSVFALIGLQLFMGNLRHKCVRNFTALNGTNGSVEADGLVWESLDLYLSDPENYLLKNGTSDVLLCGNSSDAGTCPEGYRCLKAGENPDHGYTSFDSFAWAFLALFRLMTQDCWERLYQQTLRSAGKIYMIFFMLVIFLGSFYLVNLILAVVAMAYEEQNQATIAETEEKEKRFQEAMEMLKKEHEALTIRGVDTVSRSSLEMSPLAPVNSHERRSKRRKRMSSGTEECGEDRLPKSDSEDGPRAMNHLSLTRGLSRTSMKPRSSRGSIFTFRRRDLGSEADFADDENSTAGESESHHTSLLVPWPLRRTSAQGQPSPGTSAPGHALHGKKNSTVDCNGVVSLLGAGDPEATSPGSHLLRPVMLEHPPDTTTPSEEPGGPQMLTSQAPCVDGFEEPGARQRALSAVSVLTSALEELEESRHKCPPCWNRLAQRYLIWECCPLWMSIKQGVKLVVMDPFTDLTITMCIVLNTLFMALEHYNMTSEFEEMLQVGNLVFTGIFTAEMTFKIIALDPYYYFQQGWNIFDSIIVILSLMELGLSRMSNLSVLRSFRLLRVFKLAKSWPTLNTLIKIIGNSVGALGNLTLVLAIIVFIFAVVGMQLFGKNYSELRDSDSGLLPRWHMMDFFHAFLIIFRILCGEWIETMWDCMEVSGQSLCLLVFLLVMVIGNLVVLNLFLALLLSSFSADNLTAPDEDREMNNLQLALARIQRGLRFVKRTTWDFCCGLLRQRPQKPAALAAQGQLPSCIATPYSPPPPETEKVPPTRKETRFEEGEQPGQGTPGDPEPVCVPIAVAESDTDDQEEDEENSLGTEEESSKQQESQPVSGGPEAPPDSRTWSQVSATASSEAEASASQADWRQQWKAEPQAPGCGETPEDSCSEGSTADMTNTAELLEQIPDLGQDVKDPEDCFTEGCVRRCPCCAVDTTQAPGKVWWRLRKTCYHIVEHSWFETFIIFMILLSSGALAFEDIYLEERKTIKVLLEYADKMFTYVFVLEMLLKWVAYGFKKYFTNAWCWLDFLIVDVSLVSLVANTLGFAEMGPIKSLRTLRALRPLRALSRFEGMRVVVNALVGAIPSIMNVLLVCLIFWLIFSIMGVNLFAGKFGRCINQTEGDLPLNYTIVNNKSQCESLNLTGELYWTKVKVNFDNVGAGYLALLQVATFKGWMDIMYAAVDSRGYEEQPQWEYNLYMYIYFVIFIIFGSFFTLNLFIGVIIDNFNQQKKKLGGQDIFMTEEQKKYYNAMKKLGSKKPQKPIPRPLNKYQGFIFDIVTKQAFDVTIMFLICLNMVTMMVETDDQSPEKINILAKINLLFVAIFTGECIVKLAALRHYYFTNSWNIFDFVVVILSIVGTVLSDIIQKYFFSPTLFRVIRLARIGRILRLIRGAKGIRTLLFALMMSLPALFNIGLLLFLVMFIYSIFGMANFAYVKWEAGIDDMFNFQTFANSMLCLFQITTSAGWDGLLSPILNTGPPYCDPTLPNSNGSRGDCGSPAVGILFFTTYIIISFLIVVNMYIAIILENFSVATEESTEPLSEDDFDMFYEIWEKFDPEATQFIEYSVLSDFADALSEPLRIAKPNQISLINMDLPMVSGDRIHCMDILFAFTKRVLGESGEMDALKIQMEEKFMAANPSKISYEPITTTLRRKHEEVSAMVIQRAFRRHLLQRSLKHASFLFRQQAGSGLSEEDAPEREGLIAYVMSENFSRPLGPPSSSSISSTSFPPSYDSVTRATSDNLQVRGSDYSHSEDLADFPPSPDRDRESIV
Experiment: IonWorks Quattro NaV1.5 screen (AstraZeneca, Q)
Conditions: IonWorks Quattro; −log10 of IC50 in Molar; Hill n = 1; 0.0 = pIC50 ≤ 0 fitted
quantityMeasured: NaV1.5 pIC50 (Q)
Answers are plain numbers.

| compound | quantityMeasured | reportedMeasurement |
| --- | --- | --- |
| O=C(O)c1ccc(-n2nc(-c3ccccc3O)nc2-c2ccccc2O)cc1 | NaV1.5 pIC50 (Q) | 4.1 |

Parameters: items (list). Returns: NaV1.5 pIC50 (Q) for each item.
1. C[C@H](Cc1cc2c(c(C(N)=O)c1)N(CCCO)CC2)NCCOc1ccccc1OCC(F)(F)F
2. Nc1nnc(-c2cccc(Cl)c2Cl)c(N)n1
3. COC(c1ccccc1)(c1ccccc1)[C@H](Oc1nc(C)cc(C)n1)C(=O)O
4. C[C@H]1CN(C[C@H](Cc2ccccc2)C(=O)NCC(=O)O)CC[C@@]1(C)c1cccc(O)c1
5. CS(=O)(=O)CCNCc1ccc(-c2ccc3ncnc(Nc4ccc(OCc5cccc(F)c5)c(Cl)c4)c3c2)o1
6. Cc1nc2n(c(=O)c1CCN1CCC(c3noc4cc(F)ccc34)CC1)CCCC2O (centres unmarked)

[4.2, 4.0, 2.9, 3.6, 2.5, 4.6]

Quick one: NaV1.5 pIC50 (Q) for CN1CC(=O)N2[C@H](c3ccc4c(c3)OCO4)c3[nH]c4ccccc4c3C[C@@H]2C1=O ? 3.9
